Here the recorded PSMA Blkg % (10 μM) is given for each entry.
- Tested on: human PSMA (Homo sapiens (Human))
- Method notes: Enzymatic assay for in vitro evaluation of PSMA inhibitors (fluorescent assay of PSMA activity, NAAG substrate, OPA detection of glutamate)
- Assay type: biochemical
- Assay setup: compound at 10 μM
Give the value in % but do not write % after it.

O=C(Cn1cc(CCCF)nn1)NCCCC[C@H](NC(=O)Nc1cc(C(=O)O)cc(C(=O)O)c1)C(=O)O; 0
NS(=O)(=O)N(OC(=O)OCc1ccccc1)[C@@H](CCC(=O)O)C(=O)O; 5
CN(C(=S)N[C@@H](CCC(=O)O)C(=O)O)[C@@H](CCCCNC(=O)OCc1ccccc1)C(=O)O; 15

For the next question, use this molecule.
Query: For the record CCC1(CC)C(=O)N([C@@H](CCCCNCc2ccc(OC)cc2)C(=O)O)C(=O)N([C@@H](CCC(=O)O)C(=O)O)C1=O , what value of PSMA Blkg % (10 μM) is listed for human PSMA (Homo sapiens (Human))?
Result: 4

---

- Tested on: human PSMA (Homo sapiens (Human))
- Method notes: Enzymatic assay for in vitro evaluation of PSMA inhibitors (fluorescent assay of PSMA activity, NAAG substrate, OPA detection of glutamate)
- Type: biochemical
- Assay setup: compound at 10 μM
Readout name: PSMA Blkg % (10 μM) (%)
Give the value in % but do not write % after it.

A selection of reference data follows.
COc1ccc(CCCC(=O)N(O)CC(=O)N[C@@H](CCC(=O)O)C(=O)O)cc1 [P132]; 17
CCC1(CC)C(=O)N([C@@H](CCCCNC/C=C/c2ccc(-n3cc(CCCF)nn3)cc2)C(=O)O)C(=O)N([C@@H](CCC(=O)O)C(=O)O)C1=O [P114]; 8
CN(C(=O)N[C@@H](CCC(=O)O)C(=O)O)[C@@H](CCCCNC(=O)CCCn1cc(CCCF)nn1)C(=O)O [P046]; 80
CN(C(=O)N[C@@H](CCC(=O)O)C(=O)O)[C@@H](CCCCNC(=O)c1ccc(F)cc1)C(=O)O [P156]; 87
CN(C(=O)N[C@@H](CCC(=O)O)C(=O)O)[C@@H](CCCCNC(=O)NCc1ccccc1)C(=O)O [P175]; 18

Query: So what does the record say about PSMA Blkg % (10 μM) for O=C(O)CC[C@@H](C(=O)O)N1C(=O)CC(=O)NC1=O [P126] ?
Result: 12

Query: And for [N-]=[N+]=NCCCC(=O)N[C@@H](CC(=O)N[C@@H](CCC(=O)O)C(=O)O)C(=O)O [P023] ?
Result: 24

Query: And for CC1(C)C(=O)N([C@@H](CCCCNC(=O)OCc2ccccc2)C(=O)O)C(=O)N([C@@H](CCC(=O)O)C(=O)O)C1=O [P077] ?
Result: 28

Query: And for CN(C(=O)N[C@@H](CCC(=O)O)C(=O)O)[C@@H](CCCCNC(=O)c1ccc(F)nc1)C(=O)O [P133] ?
Result: 95

Query: And for CN(C(=O)[C@H](CC(=O)O)NC(=O)c1ccc(F)cc1)[C@@H](CCC(=O)O)C(=O)O [P163] ?
Result: 0

Query: And for Cc1nc(N[C@@H](CCC(=O)O)C(=O)O)sc1C(=O)O [P087] ?
Result: 3

Query: And for CN(C(=O)N[C@@H](CCC(=O)O)C(=O)O)[C@@H](Cc1ccc(NC(=O)CCCN=[N+]=[N-])cc1)C(=O)O [P063] ?
Result: 30

---

- Tested on: human PSMA (Homo sapiens (Human), UniProt Q04609)
- Sequence (Q04609 whole entry): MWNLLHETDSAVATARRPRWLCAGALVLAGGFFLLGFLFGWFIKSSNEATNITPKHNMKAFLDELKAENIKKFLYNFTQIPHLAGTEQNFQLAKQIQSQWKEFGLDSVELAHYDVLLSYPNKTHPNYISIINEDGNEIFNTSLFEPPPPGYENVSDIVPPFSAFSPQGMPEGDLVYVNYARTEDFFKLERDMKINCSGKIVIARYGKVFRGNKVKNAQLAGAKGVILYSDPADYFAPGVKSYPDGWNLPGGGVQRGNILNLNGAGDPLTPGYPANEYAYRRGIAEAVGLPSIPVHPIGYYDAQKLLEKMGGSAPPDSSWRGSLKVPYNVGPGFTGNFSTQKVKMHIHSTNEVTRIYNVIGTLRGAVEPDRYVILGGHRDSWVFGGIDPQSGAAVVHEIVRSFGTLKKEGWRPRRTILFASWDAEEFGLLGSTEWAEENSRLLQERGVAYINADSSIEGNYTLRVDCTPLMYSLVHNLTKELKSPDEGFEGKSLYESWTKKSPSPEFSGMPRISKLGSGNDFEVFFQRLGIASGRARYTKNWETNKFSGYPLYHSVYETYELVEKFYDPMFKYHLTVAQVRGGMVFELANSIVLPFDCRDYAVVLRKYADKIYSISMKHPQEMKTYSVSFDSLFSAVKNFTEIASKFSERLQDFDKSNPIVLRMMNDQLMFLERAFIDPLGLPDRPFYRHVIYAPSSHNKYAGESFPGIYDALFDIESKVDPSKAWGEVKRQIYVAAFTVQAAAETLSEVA
- Method notes: Enzymatic assay for in vitro evaluation of PSMA inhibitors (fluorescent assay of PSMA activity, NAAG substrate, OPA detection of glutamate)
- Type: biochemical
- Assay setup: 1.0 μM
- Experimental: Enzymatic Assay for In Vitro Evaluation of PSMA Inhibitors The inhibitory activity of all compounds was determined using a fluorescent assay of human PSMA activity. The enzyme used in the assay was purchased from R&D Systems and stored at −80° C. […] In the second step, the amount of accumulated glutamate was measured using the OPA reaction, and the fluorescence was read with a SpectraMax fluorescent plate reader using excitation at 330 nm and emission at 450 nm. […]
Here the recorded PSMA Blkg % (1.0 μM) is given for each entry.
Give the figure together with its unit, number first.

O=C(O)CC[C@H](NC(=O)N[C@@H](Cc1ccc(NC(=O)N2CCN(C(=O)c3ccc(-n4cc(CCCF)nn4)cc3)CC2)cc1)C(=O)O)C(=O)O [P248]; 100%
O=C(O)CC[C@@H](NC(=O)N[C@@H](CCCCNC(=O)c1cc(C(=O)NCCCC[C@H](NC(=O)N[C@H](CCC(=O)O)C(=O)O)C(=O)O)cc(-n2cc(CCCF)nn2)c1)C(=O)O)C(=O)O [P297]; 31%
O=C(O)CC[C@H](NC(=O)C[C@@H](NC(=O)c1ccc(-n2cc(CCCF)nn2)cc1)C(=O)O)C(=O)O [P221]; 15%
O=C(O)CC[C@H](NC(=O)N[C@@H](CCCCNC(=O)c1cc(C(=O)N2CCN(C(=O)Nc3ccc(C[C@H](NC(=O)N[C@@H](CCC(=O)O)C(=O)O)C(=O)O)cc3)CC2)cc(-n2cc(CCCF)nn2)c1)C(=O)O)C(=O)O [P286]; 92%
O=C(O)CC[C@H](NC(=O)N[C@@H](CCCCNC(=O)c1cc(C(=O)N[C@@H](CCC(=O)O)C(=O)O)cc(-n2cc(CCCF)nn2)c1)C(=O)O)C(=O)O [P268]; 68%

Query: So what does the record say about PSMA Blkg % (1.0 μM) for O=C(O)CC[C@H](NC(=O)NC(CC1CCN(C(=O)CCCc2ccc(-n3cc(CCCF)nn3)cc2)CC1)C(=O)O)C(=O)O (some centres unmarked) [P230] ?
Result: 95%

Query: And for O=C(O)CC[C@H](NC(=O)N[C@@H](Cc1ccc(NC(=O)c2cc(C(=O)Nc3ccc(C[C@H](NC(=O)N[C@@H](CCC(=O)O)C(=O)O)C(=O)O)cc3)cc(-n3cc(CCCF)nn3)c2)cc1)C(=O)O)C(=O)O [P238] ?
Result: 100%

---

- Tested on: human PSMA (Homo sapiens (Human))
- Method notes: Enzymatic assay for in vitro evaluation of PSMA inhibitors (fluorescent assay of PSMA activity, NAAG substrate, OPA detection of glutamate)
- Format: biochemical
- Assay setup: compound at 10 μM
Here the recorded PSMA Blkg % (10 μM) is given for each entry.
Give the figure together with its unit, number first.

A selection of reference data follows.
O=C(O)CC[C@H](NC(=O)N1CCC[C@H]1C(=O)O)C(=O)O; 32%
CCC1(CC)C(=O)N([C@@H](CCCCNC(=S)Nc2ccc(-n3cc(CCCF)nn3)cc2)C(=O)O)C(=O)N([C@@H](CCC(=O)O)C(=O)O)C1=O; 10%
O=C(O)CC[C@@H](C(=O)O)N1C(=O)N([C@@H](CCCCNC(=O)OCc2ccccc2)C(=O)O)C(=O)C2(CCC2)C1=O; 67%
C[C@H](NC(=O)N[C@@H](CCC(=O)O)C(=O)O)C(=O)NCCF; 4%
O=C(O)CC[C@H](NC(=O)CN(O)C(=O)CCCCn1cc(CCCF)nn1)C(=O)O; 16%
CN(C(=O)N[C@@H](CCC(=O)O)C(=O)O)[C@@H](CCCCNC(=O)OCc1ccc([N+](=O)[O-])cc1)C(=O)O; 77%
CN(C(=O)CCCC(=O)O)[C@@H](CCC(=O)O)C(=O)O; 12%

Query: So what does the record say about PSMA Blkg % (10 μM) for CCC1(CC)C(=O)N([C@@H](CCCCN(Cc2ccc([N+](=O)[O-])cc2)Cc2ccc([N+](=O)[O-])cc2)C(=O)O)C(=O)N([C@@H](CCC(=O)O)C(=O)O)C1=O ?
Result: 7%

---

Here the recorded PSMA Blkg % (10 μM) is given for each entry.
- Tested on: UniProt Q04609
- Method notes: Enzymatic assay for in vitro evaluation of PSMA inhibitors (fluorescent assay of PSMA activity, NAAG substrate, OPA detection of glutamate)
- Format: biochemical
- Assay setup: compound at 10 μM
Give the value in % but do not write % after it.

O=C(O)CC[C@H](NC(=O)C[C@H](NC(=O)CCCNC(=O)OCc1ccccc1)C(=O)O)C(=O)O; 31
O=C(O)CCNC(=O)N[C@@H](CCC(=O)O)C(=O)O; 2

Query: So what does the record say about PSMA Blkg % (10 μM) for O=C(O)CC[C@@H](C(=O)O)N1C(=O)/C(=C(\O)CCCCn2cc(CCCF)nn2)C(=O)N(Cc2ccccc2)C1=O ?
Result: 0

Query: And for O=C(O)CC[C@H](NC(=O)NNC(=O)OCc1ccccc1)C(=O)O ?
Result: 0

Query: And for Nc1ccc(CCCC(=O)N(O)CC(=O)N[C@@H](CCC(=O)O)C(=O)O)cc1 ?
Result: 37

Query: And for O=C(O)CC[C@@H](C(=O)O)N(O)C(=O)N[C@@H](CCCCNC(=O)Cn1cc(CCCF)nn1)C(=O)O ?
Result: 87

Query: And for O=C(O)CC[C@H](NC(=O)N[C@@H](CCCCNC(=O)Cn1cc(CCCF)nn1)C(=O)O)C(=O)O ?
Result: 89

Query: And for O=C(O)CC[C@@H](C(=O)O)N1C(=O)CC(=O)N([C@@H](CCCCNC(=O)Cn2cc(CCCF)nn2)C(=O)O)C1=O ?
Result: 10

From: patent US10894807B2
